Assay: Residual parent lipid levels in the liver after LNP administration to mice
Type: in vivo
Settings: 24 h after intravenous LNP administration, CD-1 mice
MEASURE: Parent Lipid Remaining (nmol/g liver tissue) at 24 h
State the answer as a number, implicitly in nmol/g liver tissue.

Qu. Quickly give me recorded Parent Lipid Remaining (nmol/g liver tissue) at 24 h for CCCCCCCCC(CCCCCCCC)OC(=O)CCCCCCCN(CCO)CCCCCCOC(=O)OCCC(CCCCC)CCCCC
Ans. 72

Qu. Quickly give me recorded Parent Lipid Remaining (nmol/g liver tissue) at 24 h for CCCCCCCCCOC(=O)OCCCCCCN(CCO)CCCCCCCC(=O)OC(CCCCCCCC)CCCCCCCC
Ans. 3

Qu. Quickly give me recorded Parent Lipid Remaining (nmol/g liver tissue) at 24 h for CCCCCCCCC(CCCCCCCC)OC(=O)CCCCCCCN(CCO)CCCCCCOC(=O)OCCC(CCCCCC)CCCCCC
Ans. 67

Qu. Quickly give me recorded Parent Lipid Remaining (nmol/g liver tissue) at 24 h for CCCCCCCCC(CCCCCCCC)OC(=O)CCCCCCCN(CCCCCCOC(=O)OCCC(CCCCC)CCCCC)CCCNc1c(NC)c(=O)c1=O
Ans. 94

Qu. Quickly give me recorded Parent Lipid Remaining (nmol/g liver tissue) at 24 h for CCCCCCCCC(CCCCCCCC)OC(=O)CCCCCCCN(CCCCCCOC(=O)OCCC(CCCCCC)CCCCCC)CCCNc1c(NC)c(=O)c1=O
Ans. 364
